Quick reference for IC50 among some compounds
target: P2Y purinoceptor 12 (Homo sapiens, UniProt Q9H244); assay: Inhibition of P2Y12R (unknown origin) by HTS assay
Sequence (Q9H244 whole entry): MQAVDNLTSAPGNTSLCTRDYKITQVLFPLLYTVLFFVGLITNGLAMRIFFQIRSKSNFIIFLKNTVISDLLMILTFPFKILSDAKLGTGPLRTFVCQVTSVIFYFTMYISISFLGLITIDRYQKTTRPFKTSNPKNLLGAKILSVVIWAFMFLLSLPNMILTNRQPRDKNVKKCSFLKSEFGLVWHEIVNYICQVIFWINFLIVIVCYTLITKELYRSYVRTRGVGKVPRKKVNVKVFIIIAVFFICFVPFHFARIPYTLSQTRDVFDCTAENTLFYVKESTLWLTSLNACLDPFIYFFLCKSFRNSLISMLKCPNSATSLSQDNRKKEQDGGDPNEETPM

smiles repr | measured on | IC50 (nM)
CCOC(=O)N1CCN(C(=O)[C@H](CCC(=O)O)NC(=O)c2cc(OC(C)(C)C(=O)O)c3ccc(C)cc3n2)CC1 | P2Y purinoceptor 12 (Homo sapiens, UniProt Q9H244) | 290
CCOC(=O)N1CCN(C(=O)[C@H](CCC(=O)O)NC(=O)c2cc(OC(C)(C)C(=O)OCC)c3ccc(C)cc3n2)CC1 | P2Y purinoceptor 12 (Homo sapiens, UniProt Q9H244) | 97

----------
Quick list: IC50 per entry.
target: P2Y purinoceptor 1 (Homo sapiens, UniProt P47900)
Sequence (P47900 whole entry): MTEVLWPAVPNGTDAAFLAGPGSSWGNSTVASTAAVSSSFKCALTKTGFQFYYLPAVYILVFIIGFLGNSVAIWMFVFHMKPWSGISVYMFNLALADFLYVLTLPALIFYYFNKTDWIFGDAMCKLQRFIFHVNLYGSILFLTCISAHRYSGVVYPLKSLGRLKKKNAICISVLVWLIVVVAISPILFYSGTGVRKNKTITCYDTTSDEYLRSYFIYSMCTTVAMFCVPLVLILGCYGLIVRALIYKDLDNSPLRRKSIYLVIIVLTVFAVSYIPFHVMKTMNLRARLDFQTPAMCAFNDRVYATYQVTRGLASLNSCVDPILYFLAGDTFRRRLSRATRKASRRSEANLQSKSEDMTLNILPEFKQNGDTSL

smiles repr | IC50 (nM)
Cc1nc(/N=N/c2ccc(Cl)c([N+](=O)[O-])c2)c(COP(=O)(O)O)c(C=O)c1O | 660
Cc1nc(/N=N/c2cc([N+](=O)[O-])ccc2Cl)c(COP(=O)(O)O)c(C=O)c1O | 1100

----------
molecular target: P2Y purinoceptor 12 (Homo sapiens, UniProt Q9H244); test: Antagonist activity at P2Y12R (unknown origin)
pIC50: −log10 of the molar value.
measurement kind: pIC50

smiles repr | result
CNc1cc2[nH]c(=O)n(-c3ccc(NC(=O)NS(=O)(=O)c4ccc(Cl)s4)cc3)c(=O)c2cc1F | > 5.00

Numbers sourced from ChEMBL document CHEMBL6109176.
